Measurement description: in vitro
Assay setup: human, MT4 cells
Description: Selectivity index, ratio of CC50 for cytotoxicity against human MT4 cells to EC50 for antiviral activity against NNRTI-resistant HIV-1 harboring L100I mutant infected in human MT4 cells
Please provide measured selectivity ratio for the entries that follow.

Consider the compound "Cc1cc(C#N)cc(C)c1Oc1nc(Nc2ccc(C#N)cc2)nc2c1CNCC2" and give its measured selectivity ratio.
595

Consider the compound "Cc1cc(C#N)cc(C)c1Oc1nc(Nc2ccc(C#N)cc2)nc2c1CN(Cc1ccc(S(N)(=O)=O)cc1)CC2" and give its measured selectivity ratio.
> 3040

Consider the compound "Cc1ccc(C(=O)N2CCc3nc(Nc4ccc(C#N)cc4)nc(Oc4c(C)cc(C#N)cc4C)c3C2)cc1" and give its measured selectivity ratio.
> 2570

Consider the compound "Cc1cc(C#N)cc(C)c1Oc1nc(Nc2ccc(C#N)cc2)nc2c1CN(Cc1ccc(C(N)=O)cc1)CC2" and give its measured selectivity ratio.
1510

Consider the compound "Cc1cc(C#N)cc(C)c1Oc1nc(Nc2ccc(C#N)cc2)nc2c1CN(Cc1ccc(S(C)(=O)=O)cc1)CC2" and give its measured selectivity ratio.
> 1380

Consider the compound "C=CC(=O)N1CCc2nc(Nc3ccc(C#N)cc3)nc(Oc3c(C)cc(C#N)cc3C)c2C1" and give its measured selectivity ratio.
252

Consider the compound "Cc1cc(C#N)cc(C)c1Oc1nc(Nc2ccc(C#N)cc2)nc2c1CN(C(=O)c1ccc([N+](=O)[O-])cc1)CC2" and give its measured selectivity ratio.
> 1910

----------
Measurement description: in vitro
Assay setup: human, MT4 cells
Description: Selectivity index, ratio of CC50 for cytotoxicity against human MT4 cells to EC50 for antiviral activity against NNRTI-resistant HIV-1 harboring Y188L mutant infected in human MT4 cells
Please provide measured selectivity ratio for the entries that follow.
Form rule: numeric answer, no unit written next to it.

Consider the compound "Cc1cc(C#N)cc(C)c1Oc1nc(Nc2ccc(C#N)cc2)nc2c1CN(Cc1ccc(C(N)=O)cc1)CC2" and give its measured selectivity ratio.
5550

Consider the compound "C=CC(=O)N1CCc2nc(Nc3ccc(C#N)cc3)nc(Oc3c(C)cc(C#N)cc3C)c2C1" and give its measured selectivity ratio.
220

Consider the compound "Cc1cc(C#N)cc(C)c1Oc1nc(Nc2ccc(C#N)cc2)nc2c1CNCC2" and give its measured selectivity ratio.
1010

----------
Measurement description: MRT (0 to infinity) in Sprague-Dawley rat at 2 mg/kg, iv measured at 5 to 600 min by LC-MS/MS analysis
Assay type: ADME, organism-based
Assay setup: in vivo, time 5-600 min
Parameter: MRT inf (min)
Answer in min, number only, no unit symbol.

Consider the molecule "CCC(=O)N1CCc2nc(Nc3ccc(C#N)cc3)nc(Oc3c(C)cc(C#N)cc3C)c2C1" and give its measured MRT inf.
39.8

----------
Measurement description: AUC (0 to infinity) in Sprague-Dawley rat at 10 mg/kg, po measured at 15 to 720 min by LC-MS/MS analysis
Assay type: ADME, organism-based
Design: dose 10 mg/kg, time upper 720 min, time lower 15 min, route po
Assay setup: in vivo
Parameter: AUC(0-inf) (ng·h/mL)
Answer in ng·h/mL, number only, no unit symbol.

Consider the molecule "CCC(=O)N1CCc2nc(Nc3ccc(C#N)cc3)nc(Oc3c(C)cc(C#N)cc3C)c2C1" and give its measured AUC(0-inf).
23.4

----------
Measurement description: Water solubility of the compound in phosphate buffer at pH 7.4
Assay setup: buffer
Parameter: solubility

Consider the compound Cc1cc(/C=C/C#N)cc(C)c1Nc1ccnc(Nc2ccc(C#N)cc2)n1 [RILPIVIRINE] and give its measured solubility.
< 1 µg/mL
